Parameter activation: see the listing below.
Biological target: 5-hydroxytryptamine receptor 5A (Homo sapiens)
Test: HTR5A agonists in cells, counter-screen for OPRM1-OPRD1 heterodimer agonist project, cell-based, luminescence (AID 504905);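 note: 0% = vehicle-treated cells and 100% = reference agonist response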
Settings: HTR5A agonist counterscreen, at 9.3 µM, hits give high values
The list shows a part of the results.
Respond numerically; units are % and should not be typed.

// below: answered molecules
INSERT INTO measurements (molecule, readout_label, reading) VALUES
  ('CCOC(=O)C1(CCc2ccccc2)CCN(Cc2ccco2)CC1', 'activation', 3.8),
  ('COC1C(O)C(C)OC(OC2CCC3(C=O)C(CCC4C3CCC3(C)C(C5=CC(=O)OC5)CCC43O)C2)C1O (centres undefined)', 'activation', 13.7);

Recorded activation (molecule C[C@]12CC[C@H](O)C[C@H]1CC[C@@H]1C2CC[C@]2(C)[C@@H](C3=CC(=O)OC3)[C@@H](O)C[C@]12O (some centres undefined) ): -0.48

Measured activation of CCC1(C)CC(CCNCc2ccc(N(C)C)cc2)(c2ccc(F)cc2)CCO1 (centres undefined) : 0.44
